Target: Human NHE3 (Homo sapiens)
Construct: expressed in transfected cells; host or cells: Opossum kidney (OK) cells (ATCC), electroporation
Sequence (P48764 26-834): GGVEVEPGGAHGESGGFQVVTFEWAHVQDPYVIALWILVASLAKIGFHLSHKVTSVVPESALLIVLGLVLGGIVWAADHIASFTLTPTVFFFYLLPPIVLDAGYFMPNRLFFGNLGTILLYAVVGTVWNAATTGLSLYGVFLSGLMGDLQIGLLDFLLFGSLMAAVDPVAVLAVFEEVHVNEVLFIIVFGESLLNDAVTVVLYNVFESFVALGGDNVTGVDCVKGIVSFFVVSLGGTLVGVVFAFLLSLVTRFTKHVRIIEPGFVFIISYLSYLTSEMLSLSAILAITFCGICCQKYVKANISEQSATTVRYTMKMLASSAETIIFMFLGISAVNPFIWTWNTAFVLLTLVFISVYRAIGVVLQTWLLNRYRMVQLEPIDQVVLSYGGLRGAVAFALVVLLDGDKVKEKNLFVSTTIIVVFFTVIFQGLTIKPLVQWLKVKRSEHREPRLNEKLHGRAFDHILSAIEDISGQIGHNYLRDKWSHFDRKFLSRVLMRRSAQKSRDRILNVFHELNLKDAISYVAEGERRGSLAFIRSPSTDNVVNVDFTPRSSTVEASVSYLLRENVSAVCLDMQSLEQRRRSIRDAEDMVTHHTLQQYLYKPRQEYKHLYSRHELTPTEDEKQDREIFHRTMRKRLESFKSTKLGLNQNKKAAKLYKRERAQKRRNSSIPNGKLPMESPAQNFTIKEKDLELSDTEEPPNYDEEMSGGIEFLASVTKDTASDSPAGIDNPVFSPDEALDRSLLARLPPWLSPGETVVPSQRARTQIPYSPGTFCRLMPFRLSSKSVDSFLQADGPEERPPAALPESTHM
Test: Cell-based NHE3 activity under prompt conditions (OK cells, BCECF pH recovery), human NHE3
Settings: prompt conditions
Procedure: Cell-based activity under Prompt Conditions. Rat or human NHE3-mediated Na^+-dependent H antiport was measured using a modification of the pH sensitive dye method originally reported by Paradiso (PNAS USA. 81:7436-7440, 1984). Opossum kidney (OK) cells were obtained from the ATCC and propagated per their instructions. […]
assayMetric: Prompt Human NHE3 pIC50

Req: So what does the record say about Prompt Human NHE3 pIC50 for CN(CC(=O)NCCOCCOCCOCCNS(=O)(=O)c1ccc(OC2c3ccccc3CC2N2CCCCC2)cc1)CC(=O)NCCOCCOCCOCCNS(=O)(=O)c1ccc(OC2c3ccccc3CC2N2CCCCC2)cc1 (centres unmarked) [compound 52] ?
Resp: 7.40

Req: Now consider CN1Cc2c(Cl)cc(Cl)cc2[C@H](c2cccc(S(=O)(=O)NCCOCCOCCOCCNC(=O)CN(CC(=O)NCCOCCOCCOCCNS(=O)(=O)c3cccc([C@@H]4CN(C)Cc5c(Cl)cc(Cl)cc54)c3)[C@@H]3CCCC[C@H]3N(CC(=O)NCCOCCOCCOCCNS(=O)(=O)c3cccc([C@@H]4CN(C)Cc5c(Cl)cc(Cl)cc54)c3)CC(=O)NCCOCCOCCOCNS(=O)(=O)c3cccc([C@@H]4CN(C)Cc5c(Cl)cc(Cl)cc54)c3)c2)C1 [compound 71] .
Resp: 7.00

----------
Test system: phosphorus and calcium levels in the urine of rats
Test: Urinary excretion of phosphate and calcium in rats (16 h overnight urine)
Format: in vivo, rat
Conditions: rats, oral gavage, dose 10 mg/kg, 16 h post-dose
Response field class: enum, chosen by comparing Urine P % of control against lo = under 60%, med = from 60% up to 90%, hi = 90% and over

Req: Could you tell me which band CN(C)[C@H]1Cc2c(Cl)cc(Cl)cc2[C@@H]1Oc1ccc(S(=O)(=O)NCCOCCOCCNC(=O)Nc2ccc(NC(=O)NCCOCCOCCNS(=O)(=O)c3ccc(O[C@H]4c5cc(Cl)cc(Cl)c5C[C@@H]4N(C)C)cc3)cc2)cc1 [compound 152] belongs to?
Resp: med

Req: Now consider CN1Cc2c(Cl)cc(Cl)cc2[C@@H](c2cccc(S(=O)(=O)NCCOCCOCCNC(=O)NCCCCNC(=O)NCCOCCOCCNS(=O)(=O)c3cccc([C@H]4CN(C)Cc5c(Cl)cc(Cl)cc54)c3)c2)C1 [compound 40] .
Resp: hi

Req: Now consider CN1Cc2c(Cl)cc(Cl)cc2[C@H](c2cccc(S(=O)(=O)NCCOCCOCCNC(=O)CCC(=O)NCCOCCOCCNS(=O)(=O)c3ccc(O[C@H]4c5ccccc5C[C@@H]4N4CCCCC4)cc3)c2)C1 [compound 96] .
Resp: hi

Req: Now consider O=C(NCCOCCOCCNS(=O)(=O)c1ccc(O[C@H]2c3ccccc3C[C@@H]2N2CCCCC2)cc1)c1cccc(C(=O)NCCOCCOCCNS(=O)(=O)c2ccc(O[C@H]3c4ccccc4C[C@@H]3N3CCCCC3)cc2)c1 [compound 101] .
Resp: med

Req: Now consider C/C(=C\c1cc(F)c(Oc2ccc(S(=O)(=O)NCCOCCOCCOCCNC(=O)OCCOCCOCCOC(=O)NCCOCCOCCOCCNS(=O)(=O)c3ccc(Oc4c(F)cc(/C=C(\C)C(=O)N=C(N)N)cc4F)cc3)cc2)c(F)c1)C(=O)N=C(N)N [compound 26] .
Resp: med

Req: Now consider CN1Cc2c(Cl)cc(Cl)cc2[C@H](c2cccc(S(=O)(=O)NCCOCCOCCNC(=O)NCCC[N+](C)(CCCNC(=O)NCCOCCOCCNS(=O)(=O)c3cccc([C@@H]4CN(C)Cc5c(Cl)cc(Cl)cc54)c3)CCCNC(=O)NCCOCCOCCNS(=O)(=O)c3cccc([C@@H]4CN(C)Cc5c(Cl)cc(Cl)cc54)c3)c2)C1 [compound 109] .
Resp: lo

Req: Now consider CN(CC(=O)NCCOCCOCCNS(=O)(=O)c1ccc(O[C@H]2c3ccccc3C[C@@H]2N2CCCCC2)cc1)CC(=O)NCCOCCOCCNS(=O)(=O)c1ccc(O[C@H]2c3ccccc3C[C@@H]2N2CCCCC2)cc1 (racemic) [compound 50] .
Resp: lo

Req: Now consider CN1Cc2c(Cl)cc(Cl)cc2[C@H](c2cccc(S(=O)(=O)N(C)CCOCCOCCNC(=O)NCCCN(CCCNC(=O)NCCOCCOCCN(C)S(=O)(=O)c3cccc([C@@H]4CN(C)Cc5c(Cl)cc(Cl)cc54)c3)CCCNC(=O)NCCOCCOCCN(C)S(=O)(=O)c3cccc([C@@H]4CN(C)Cc5c(Cl)cc(Cl)cc54)c3)c2)C1 [compound 106] .
Resp: med

Req: Now consider CN1Cc2c(Cl)cc(Cl)cc2C(c2cccc(S(=O)(=O)NCCOCCOCCOCCNC(=O)NCCN(CCNC(=O)NCCOCCOCCOCCNS(=O)(=O)c3cccc([C@@H]4CN(C)Cc5c(Cl)cc(Cl)cc54)c3)CCNC(=O)NCCOCCOCCOCCNS(=O)(=O)c3cccc([C@@H]4CN(C)Cc5c(Cl)cc(Cl)cc54)c3)c2)C1 (stereo in doubt) [compound 59] .
Resp: lo

Req: Now consider CCCCCCCCCCC(=O)NCCOCCOCCOCCNS(=O)(=O)c1cccc([C@@H]2CN(C)Cc3c(Cl)cc(Cl)cc32)c1 [compound 92] .
Resp: med

Req: Now consider NCCOCCOCCN1CCN(c2ccc(-c3nc(N=C(N)N)nc4ccc(Cl)cc34)cc2)CC1 [compound 19] .
Resp: hi

Req: Now consider CN1Cc2c(Cl)cc(Cl)cc2[C@H](c2cccc(S(=O)(=O)NCCOCCOCCNC(=O)NCCN(CCNC(=O)NCCOCCOCCNS(=O)(=O)c3cccc([C@@H]4CN(C)Cc5c(Cl)cc(Cl)cc54)c3)C(=O)CCOCCOCCOCCOCCOCCOCCOCCOCCOCCC(=O)N(CCNC(=O)NCCOCCOCCNS(=O)(=O)c3cccc([C@@H]4CN(C)Cc5c(Cl)cc(Cl)cc54)c3)CCNC(=O)NCCOCCOCCNS(=O)(=O)c3cccc([C@@H]4CN(C)Cc5c(Cl)cc(Cl)cc54)c3)c2)C1 [compound 95] .
Resp: hi
